B1: tRNA (parent)
chain: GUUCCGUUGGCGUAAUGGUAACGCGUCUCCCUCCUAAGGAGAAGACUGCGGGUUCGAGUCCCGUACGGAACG

Variants of: B1
Assay: yeast fitness, log relative to wild type (ln ratio); higher = fitter; tRNA-Arg(CCU), competitive growth, 37 C, 1 M NaCl
Could you label it T if measured yeast fitness (ln) is -0.2 or higher, and F otherwise?

Answered cases to consult:
{"columns": ["Sequence Data", "Answer Label"],
 "data": [
  ["GUUCCAUUGGCGUAAUGGUAACGCGUCUCCCUCCUAAGGAGACGAUUGCGGGUUCGAGUCCCGUACGGGUCG", "T"],
  ["GCUCCAUUGGCGUAAUGGUAACGCGUUUCCCUCCUAAGGAGACGAUUGCGGGUUCGAGUCCCGUAUGGAGUG", "T"],
  ["GGUCCGUUGGCGUAAUGGUAACGCGUCUCCCUCCUAAGGAGAAGACUGCGGGUUCGAGUCCCGUAUGGGAUG", "F"],
  ["ACUCCAUUGGCGUAAUGGUAACGCGUCUCCCUCCUAAGGAGAAGAUUGCGGGUUCGAGUCCCGUACGGAGCG", "T"],
  ["GUUCCGUUGGCGUAAUGGUAACGCGUCUCCCUCCUAAGGAGACGAUUGCGGGUUCGAGUCCCGUAUGGGAUG", "F"],
  ["GUUCCAUUGGCGUAAUGGUAACGCGUUUCCCUCCUAAGGAGAAGACUGCGGGUUCGAGUCCCGUAAGGGGUG", "F"],
  ["GGUCCUUUGGCGUAAUGGUAACGCGUUUCCCUCCUAAGGAGACGACUGCGGGUUCGAGUCCCGUACGGAAUG", "F"],
  ["GCUCCAUUGGCGUAAUGGUAACGCGUUUCCCUCCUAAGGAGAAGACUGCGGGUUCGAGUCCCGUAUGGGGUG", "T"],
  ["AUUCCGUUGGCGUAAUGGUAACGCGUCUCCCUCCUAAGGAGAAGACUGCGGGUUCGAGUCCCGUAUGGGGUG", "F"]
]}

Now look at this one.
Decide: yeast fitness (ln) of AGUCCGUUGGCGUAAUGGUAACGCGUUUCCCUCCUAAGGAGAAGAUUGCGGGUUCGAGUCCCGUACGGAGCG >= -0.2?
T
